Just for reference, PubChem BioAssay is where these values come from.

- experimentalDetails: reduction of polyQ htt aggregates in cells – imaging, exon1htt(103Q)mCFP cells, high-content imaging, primary screen (AID 483);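 further: compound exposure lasted 3 days before fixation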
- details: exon1htt(103Q)mCFP cell line, aggregate imaging, at 2 µM
Activity calls are given as the source filed them.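 How the source made its calls: active means visual image review flags a hit and inhibition of aggregation exceeds 20%; inconclusive means visual hit but inhibition at or below 20%; inactive means no hit on visual image review.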
Pick one: TRUE for active, FALSE for inactive

A selection of reference data follows.
{"compound": "Cn1c(=O)oc2cc(S(=O)(=O)NC3CCN(Cc4ccccc4)CC3)ccc21", "group": "TRUE"}
{"compound": "CCN(CC(=O)O)S(=O)(=O)c1cc(Cl)ccc1Cl", "group": "FALSE"}
{"compound": "CCOc1ccccc1C(=O)NCCC(=O)O", "group": "FALSE"}
{"compound": "CCc1cccc(NC(=O)Cn2cc3c(n2)CCCC3)c1", "group": "FALSE"}
{"compound": "O=c1oc2ccccc2n1CCc1ccccc1", "group": "FALSE"}
{"compound": "O=C(CN1C(=O)c2cccc3cccc1c23)N1CCN(c2ccccc2)CC1", "group": "FALSE"}
{"compound": "CCOC(=O)N1CCC(NC(=O)C2CCC(Cn3c(=O)[nH]c4ccccc4c3=O)CC2)CC1 (stereo unspecified)", "group": "FALSE"}
{"compound": "CN(CCNC(=O)c1ccc(N2CCCC2=O)cc1)CCc1ccccc1", "group": "FALSE"}
{"compound": "COc1ccc(-n2c(N)c(C(=O)NCc3ccco3)c3nc4ccccc4nc32)c(OC)c1", "group": "FALSE"}
{"compound": "Cc1ccc2c(c1)c1c3n2CC(=C2C(=O)OC(C)(C)OC2=O)NC3CCC1 (stereo unspecified)", "group": "FALSE"}

Enquiry: Call for entry O=S(=O)(Nc1cccc2ncccc12)c1cccs1 :
Return: FALSE
